- target: Inadl_1, Q8NI35
- Sequence (Q8NI35 113-229): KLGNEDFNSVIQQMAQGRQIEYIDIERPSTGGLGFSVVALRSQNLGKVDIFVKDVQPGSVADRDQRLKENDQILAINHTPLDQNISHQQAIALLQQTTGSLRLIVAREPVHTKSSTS
- experiment: holdup assay
- Parameters: key: below the threshold = too weak to quantify, mostly under pKd 3.1 to 4
- run conditions: plain residues with an end cap or a label only (N-terminal biotin on a linker: ado-ado)
observable: pKd

>>> assay_value("DYSNLRETDI [ADRA1D, P25100]")
"below the threshold"
>>> assay_value("EFKQTSSFLV [JAM1, Q9Y624]")
"below the threshold"
>>> assay_value("EKPIDSETKM [SLC1A3, P43003]")
"below the threshold"
>>> assay_value("QQGLLPHSSC [TYRO3, Q06418]")
"below the threshold"
>>> assay_value("SRPHTNETSL [MCC, P23508]")
"below the threshold"
>>> assay_value("HDDYFYHDEL [RCN2, Q14257]")
"below the threshold"
>>> assay_value("TKDKVQETQI [LRRC4, Q9HBW1]")
"below the threshold"
>>> assay_value("GVHSNDHSVV [LPAR1, Q92633]")
"below the threshold"
>>> assay_value("IQISELETNV [SLC1A7, O00341]")
"below the threshold"
>>> assay_value("NNMAFETTHF [SLC5A12, Q1EHB4]")
"below the threshold"
>>> assay_value("PGKKPEDSRV [SLCO2B1, O94956]")
"below the threshold"
>>> assay_value("LPPPESESKV [KCNJ9, Q92806]")
"below the threshold"
>>> assay_value("SGDGKTSVWI [GJC1, P36383]")
4.03
>>> assay_value("SKQFDKNAYV [CLDN10, P78369]")
"below the threshold"
>>> assay_value("HYPASPDSWV [CTNND2, Q9UQB3]")
"below the threshold"
>>> assay_value("PSVYSRSQYV [CLDN8, P56748]")
"below the threshold"
